List of switch fluorescence ratio values.
tested on: ATP; assay: switch fluorescence ratio, 500 uM ATP over buffer (Cy3 cluster intensity, sum of 5 cycles each) (fold (ratio)); higher = stronger signal-on switching upon ATP binding; sequences stand for … in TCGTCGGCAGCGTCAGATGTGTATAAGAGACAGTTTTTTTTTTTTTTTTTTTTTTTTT…TC; conditions: aptamer strand: ATP DNA aptamer (quencher-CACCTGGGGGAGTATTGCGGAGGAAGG + anchor), 100 nM annealed; ATP concentration: 500 uM;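 also: ATP exposure 15 min at 22 °C before imaging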
No unit in the answer, only the number.

{"sequence-content": "GGGCCTGATG", "observed-result": 1.01}
{"sequence-content": "AATTTAAGAA", "observed-result": 0.971}
{"sequence-content": "ATTTATCTTT", "observed-result": 1}
{"sequence-content": "TTAGGGAATG", "observed-result": 1}
{"sequence-content": "ATTCGTCTAG", "observed-result": 0.989}
{"sequence-content": "GTTTTTGCTT", "observed-result": 1.01}

Challenge: Note down switch fluorescence ratio recorded for `AAATATGTGG`
Response given: 0.989

* * *

test system: ATP; assay: switch fluorescence ratio, 500 uM ATP over buffer (Cy3 cluster intensity, sum of 5 cycles each) (fold (ratio)); higher = stronger signal-on switching upon ATP binding; sequences stand for … in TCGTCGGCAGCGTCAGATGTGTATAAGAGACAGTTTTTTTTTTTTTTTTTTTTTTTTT…TC; details: aptamer strand: ATP DNA aptamer (quencher-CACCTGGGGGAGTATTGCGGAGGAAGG + anchor), 100 nM annealed; ATP concentration: 500 uM;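 also: ATP exposure 15 min at 22 °C before imaging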
attribute-measured: switch fluorescence ratio
No unit in the answer, only the number.

The following sequences have reported results that may help.
{"sequence-content": "CCAGAGGCTA", "observed-result": 1.15}
{"sequence-content": "TGGATCTTAT", "observed-result": 1.01}
{"sequence-content": "GGAATCCGGG", "observed-result": 0.987}
{"sequence-content": "CTAAGTTCCG", "observed-result": 1.01}
{"sequence-content": "GGCCCCGGCG", "observed-result": 1}
{"sequence-content": "GGATATAGTC", "observed-result": 1}

From here, focus on the item given below.
Challenge: Answer briefly: switch fluorescence ratio recorded on ATP for `TCGGGTATTC`
Response given: 1.06

* * *

system: ATP; assay: switch fluorescence ratio, 500 uM ATP over buffer (Cy3 cluster intensity, sum of 5 cycles each) (fold (ratio)); higher = stronger signal-on switching upon ATP binding; sequences stand for … in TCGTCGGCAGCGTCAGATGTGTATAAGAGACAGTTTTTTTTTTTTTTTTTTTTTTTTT…TC; details: aptamer strand: ATP DNA aptamer (quencher-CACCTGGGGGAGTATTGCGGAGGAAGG + anchor), 100 nM annealed; ATP concentration: 500 uM;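 also: ATP exposure 15 min at 22 °C before imaging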
attribute-measured: switch fluorescence ratio
No unit in the answer, only the number.

{"sequence-content": "GCTATTGGGG", "tested-system": "ATP", "switch fluorescence ratio": 0.993}
{"sequence-content": "ACAAATTGCG", "tested-system": "ATP", "switch fluorescence ratio": 0.991}

From here, focus on the item given below.
Challenge: Note down switch fluorescence ratio recorded for `TTTTTTTT`
Response given: 1.04

* * *

List of switch fluorescence ratio values.
test system: ATP; experiment: switch fluorescence ratio, 500 uM ATP over buffer (Cy3 cluster intensity, sum of 5 cycles each) (fold (ratio)); higher = stronger signal-on switching upon ATP binding; sequences stand for … in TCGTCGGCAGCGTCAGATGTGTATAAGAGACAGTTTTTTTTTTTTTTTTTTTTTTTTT…TC; details: aptamer strand: ATP DNA aptamer (quencher-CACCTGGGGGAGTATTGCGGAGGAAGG + anchor), 100 nM annealed; ATP concentration: 500 uM;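 also: ATP exposure 15 min at 22 °C before imaging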
No unit in the answer, only the number.

{"sequence-content": "TTATTTGCGC", "observed-result": 1.02}
{"sequence-content": "TTTTTATCTT", "observed-result": 1.03}
{"sequence-content": "TTACCTCCGT", "observed-result": 2.19}
{"sequence-content": "AGGCGCCGCA", "observed-result": 1.01}
{"sequence-content": "TTCGGTAGGG", "observed-result": 0.926}
{"sequence-content": "TGACGGGGGG", "observed-result": 1.06}

Challenge: Answer briefly: switch fluorescence ratio recorded on ATP for `TATGGATGGC`
Response given: 1.01
